Kindly supply the reported Ki values for the records listed here.
Molecular target: α4β2 nicotinic receptor (Rattus norvegicus, UniProt P09483+P12390)
Sequence (P09483 31-630, one chain of several): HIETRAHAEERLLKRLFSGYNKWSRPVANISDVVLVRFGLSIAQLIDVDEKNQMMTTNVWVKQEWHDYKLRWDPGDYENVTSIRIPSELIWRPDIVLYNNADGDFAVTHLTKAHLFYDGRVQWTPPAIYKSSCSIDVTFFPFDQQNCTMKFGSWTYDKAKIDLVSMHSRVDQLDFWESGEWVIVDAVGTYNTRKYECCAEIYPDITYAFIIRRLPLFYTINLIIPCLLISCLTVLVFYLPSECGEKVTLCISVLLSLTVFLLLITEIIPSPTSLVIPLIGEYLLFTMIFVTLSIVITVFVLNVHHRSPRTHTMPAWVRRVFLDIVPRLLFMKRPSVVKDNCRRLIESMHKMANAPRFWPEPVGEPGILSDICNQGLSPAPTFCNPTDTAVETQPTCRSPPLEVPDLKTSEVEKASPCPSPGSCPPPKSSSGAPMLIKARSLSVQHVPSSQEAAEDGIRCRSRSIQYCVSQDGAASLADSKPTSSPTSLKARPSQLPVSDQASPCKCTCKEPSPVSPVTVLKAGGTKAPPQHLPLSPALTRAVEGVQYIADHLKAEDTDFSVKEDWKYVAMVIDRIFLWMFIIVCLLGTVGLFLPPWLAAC
Test: biochemical
Supply the numeric figure in nM, leaving out any unit text.

Task item: Reported Ki for α4β2 nicotinic receptor (Rattus norvegicus, UniProt P09483+P12390), given FCC[C@H]1C[C@@H]1c1cncc(OC[C@@H]2CCN2)c1 ?
Reply: 1

Task item: Follow-up item: OCCCC[C@H]1C[C@@H]1c1cncc(OC[C@@H]2CCN2)c1
Reply: 0.5

Task item: What would you report for OCC[C@H]1C[C@@H]1c1cncc(OC[C@@H]2CCN2)c1 [drawing 715] ?
Reply: 0.3

----------
Target: α3β4 nicotinic receptor (Rattus norvegicus, UniProt P04757+P12392)
Construct: expressed in transfected cells; host or cells: stably transfected cell lines (e.g., HEK293, COS, CHO, NIH3T3)
Assay: biochemical
Assay type: binding
QUANTITY_NAME: pKi
Scale for pKi: -log10 of concentration given in mol/L; no unit attached.

Task item: Recorded pKi of OCC[C@H]1C[C@@H]1c1cncc(OC[C@@H]2CCN2)c1 [drawing 715] , please.
Reply: 6.19

----------
For each of the compounds below, state its pKi.
Target: α3β2 nicotinic receptor (Rattus norvegicus, UniProt P04757+P12390)
Construct: expressed in transfected cells; host or cells: stably transfected cell lines (e.g., HEK293, COS, CHO, NIH3T3)
Sequence (P12390 25-500): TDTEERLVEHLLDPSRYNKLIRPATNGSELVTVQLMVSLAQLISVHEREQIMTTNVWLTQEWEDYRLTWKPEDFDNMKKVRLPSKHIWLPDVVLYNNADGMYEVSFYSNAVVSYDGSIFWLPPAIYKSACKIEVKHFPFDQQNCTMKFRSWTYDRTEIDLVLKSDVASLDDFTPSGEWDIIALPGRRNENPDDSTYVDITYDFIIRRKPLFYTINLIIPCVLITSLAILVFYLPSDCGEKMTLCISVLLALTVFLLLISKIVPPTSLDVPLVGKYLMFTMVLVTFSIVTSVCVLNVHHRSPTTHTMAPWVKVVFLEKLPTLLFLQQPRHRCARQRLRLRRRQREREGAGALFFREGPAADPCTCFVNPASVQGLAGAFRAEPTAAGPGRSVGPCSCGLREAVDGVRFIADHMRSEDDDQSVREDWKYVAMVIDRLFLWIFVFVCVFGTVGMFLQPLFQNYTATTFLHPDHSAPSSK
Sequence (P04757 26-499): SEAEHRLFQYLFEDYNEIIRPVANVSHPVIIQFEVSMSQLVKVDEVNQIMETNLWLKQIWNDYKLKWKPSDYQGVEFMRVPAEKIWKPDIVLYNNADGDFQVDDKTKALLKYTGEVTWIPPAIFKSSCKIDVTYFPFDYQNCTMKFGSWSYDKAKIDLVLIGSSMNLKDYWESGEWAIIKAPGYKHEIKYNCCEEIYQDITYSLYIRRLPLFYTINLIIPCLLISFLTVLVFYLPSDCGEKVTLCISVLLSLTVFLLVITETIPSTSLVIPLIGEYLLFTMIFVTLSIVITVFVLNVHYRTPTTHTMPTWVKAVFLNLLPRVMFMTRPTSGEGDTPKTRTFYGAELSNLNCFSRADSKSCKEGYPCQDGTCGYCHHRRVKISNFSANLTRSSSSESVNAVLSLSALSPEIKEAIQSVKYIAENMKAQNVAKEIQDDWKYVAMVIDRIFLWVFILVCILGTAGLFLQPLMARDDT
Experiment: biochemical
Format: binding
Note: pKi values are expressed as the negative base-10 logarithm of concentration in M.

Task item: What measured pKi goes with OCCCC[C@H]1C[C@@H]1c1cncc(OC[C@@H]2CCN2)c1 ?
Reply: 8.19

Task item: Let us now turn to OCC[C@H]1C[C@@H]1c1cncc(OC[C@@H]2CCN2)c1 [drawing 715]
Reply: 8.29

Task item: Continue with FCC[C@H]1C[C@@H]1c1cncc(OC[C@@H]2CCN2)c1
Reply: 7.47

----------
Target: α2β4 nicotinic receptor (Rattus norvegicus, UniProt P12389+P12392)
Sequence (P12392 21-495): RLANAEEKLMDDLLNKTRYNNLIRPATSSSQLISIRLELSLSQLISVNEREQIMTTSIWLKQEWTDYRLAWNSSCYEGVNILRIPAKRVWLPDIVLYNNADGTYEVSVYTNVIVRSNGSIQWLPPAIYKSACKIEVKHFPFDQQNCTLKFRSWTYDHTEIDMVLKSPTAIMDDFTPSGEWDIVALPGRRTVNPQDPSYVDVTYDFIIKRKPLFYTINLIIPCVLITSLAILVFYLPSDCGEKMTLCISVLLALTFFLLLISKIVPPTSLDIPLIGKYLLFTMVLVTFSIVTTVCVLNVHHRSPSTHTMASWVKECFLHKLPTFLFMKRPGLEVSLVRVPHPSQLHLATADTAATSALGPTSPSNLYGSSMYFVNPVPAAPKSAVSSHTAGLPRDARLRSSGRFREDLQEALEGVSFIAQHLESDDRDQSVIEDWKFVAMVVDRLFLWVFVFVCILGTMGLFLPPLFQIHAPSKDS
Sequence (P12389 28-511): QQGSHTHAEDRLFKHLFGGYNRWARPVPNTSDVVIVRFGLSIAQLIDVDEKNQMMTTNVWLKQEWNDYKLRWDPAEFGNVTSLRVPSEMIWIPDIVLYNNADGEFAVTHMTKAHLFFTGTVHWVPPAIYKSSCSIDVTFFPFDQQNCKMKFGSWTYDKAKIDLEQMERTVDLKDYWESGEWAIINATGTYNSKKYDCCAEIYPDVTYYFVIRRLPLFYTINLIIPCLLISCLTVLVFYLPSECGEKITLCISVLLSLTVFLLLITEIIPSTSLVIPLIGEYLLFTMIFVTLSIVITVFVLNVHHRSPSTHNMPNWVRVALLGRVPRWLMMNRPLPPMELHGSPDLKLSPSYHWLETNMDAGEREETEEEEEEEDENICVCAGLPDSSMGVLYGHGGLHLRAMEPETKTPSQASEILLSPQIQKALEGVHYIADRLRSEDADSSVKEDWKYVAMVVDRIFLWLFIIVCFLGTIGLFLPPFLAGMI
Test: biochemical
Answer each item with its documented Ki.
The response must be a number in nM with no trailing unit.

Task item: Reported Ki, compound OCC[C@H]1C[C@@H]1c1cncc(OC[C@@H]2CCN2)c1 [drawing 715] : ____
Reply: 62

Task item: Let us now turn to OCCCC[C@H]1C[C@@H]1c1cncc(OC[C@@H]2CCN2)c1
Reply: 120

Task item: Cool, now FCC[C@H]1C[C@@H]1c1cncc(OC[C@@H]2CCN2)c1
Reply: 660

----------
Please go through the items and note down their Ki.
Molecular target: α4β4 nicotinic receptor (Rattus norvegicus, UniProt P09483+P12392)
Sequence (P09483 31-630, one chain of several): as the sequence (P09483 31-630, one chain of several) above
Assay: biochemical
Include the unit after the number when you answer.

Task item: Given the compound FCC[C@H]1C[C@@H]1c1cncc(OC[C@@H]2CCN2)c1 , what is its reported Ki?
Reply: 1300 nM

Task item: Continue with OCCCC[C@H]1C[C@@H]1c1cncc(OC[C@@H]2CCN2)c1
Reply: 240 nM
